- MEASURED_TARGET: T1, RBFOX1 RRM RbFoxmut (Fox-RRM*) (Homo sapiens, UniProt Q9NWB1 109-208, R118D;E147R;N151S;E152T)
- T1 sequence: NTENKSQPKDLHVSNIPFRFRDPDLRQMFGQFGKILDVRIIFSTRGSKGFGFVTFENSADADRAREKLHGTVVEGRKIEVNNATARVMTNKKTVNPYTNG
- ASSAY_EXPLANATION: EMSA; HiTS-Eq, 1 nM pool, 10 min; buffer printed only for the single-RNA assays: 10 mM Tris pH 7.5, 150 mM NaCl, 3.4 mM EDTA, 0.001% NP-40, 30 C
- CONDITION_CONTEXT: tags: His6 N-terminal (pET28a); label: 5' 32P
Whole data set: some 16,000 sequences, median “ka relative to ugcaugu” near 0.096, cut for the highest 2% near 0.35. This is one part of a sample in which the highest values are shown more often than they occur.
Can you tell me binding signal for the items I'm about to list?

Examples from the recorded data:
Task: Determine its reported binding signal: GCUCCGG (DNA:RNA) RNA: GGGAGACCGGAAUUCAGAUUGUCCGCUCCGGUUAAAUCCCGUCGUAGCCACCA DNA 1: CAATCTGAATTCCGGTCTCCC DNA 2: TGGTGGCTACGACGGGATT
Output: 0.0646 KA relative to UGCAUGU

Task: Determine its reported binding signal: CGUCGUU (DNA:RNA) RNA: GGGAGACCGGAAUUCAGAUUGUCCCGUCGUUUUAAAUCCCGUCGUAGCCACCA DNA 1: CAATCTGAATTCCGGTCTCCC DNA 2: TGGTGGCTACGACGGGATT
Output: 0.108 KA relative to UGCAUGU

Task: Determine its reported binding signal: UCAGUGG (DNA:RNA) RNA: GGGAGACCGGAAUUCAGAUUGUCCUCAGUGGUUAAAUCCCGUCGUAGCCACCA DNA 1: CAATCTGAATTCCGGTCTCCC DNA 2: TGGTGGCTACGACGGGATT
Output: 0.101 KA relative to UGCAUGU

Please find the next binder below.
Task: Determine its reported binding signal: AUUUCGA (DNA:RNA) RNA: GGGAGACCGGAAUUCAGAUUGUCCAUUUCGAUUAAAUCCCGUCGUAGCCACCA DNA 1: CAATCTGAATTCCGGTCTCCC DNA 2: TGGTGGCTACGACGGGATT
Output: 0.114 KA relative to UGCAUGU
